Form field: pEC50 (one value per entry).
assay system: AGTR1 (Homo sapiens, UniProt P30556)
Construct: host or cells: Pathunter CHO-K1 AGTR1 β-arrestin cell line (CHO-K1)
procedure details: DiscoveRx IP1 accumulation assay (HTRF), agonist mode, Pathunter CHO-K1 AGTR1 β-arrestin cell line
Format: cell-based
assay context: read-out: IP-1 EC50
pEC50: −log10 of the molar value.
attribute measured: pEC50

[
  {
    "compound": "CCc1nc2c(C)cc(C)nc2n1Cc1ccc(-c2cc(-n3ccc(C(F)(F)F)n3)ccc2-c2nnn[nH]2)cc1",
    "assay system": "AGTR1 (Homo sapiens, UniProt P30556)",
    "value measured": 6.93
  },
  {
    "compound": "CCCC1=NC2(CCOC2)C(=O)N1Cc1ccc(-c2cc(-c3ccccc3O)ccc2-c2nnn[nH]2)cc1 (single isomer, unassigned) [Example 160]",
    "assay system": "AGTR1 (Homo sapiens, UniProt P30556)",
    "value measured": 6.88
  },
  {
    "compound": "CCc1nc2c(C)cc(C)nc2n1Cc1ccc(-c2cc(-c3cccc(C)c3)ccc2-c2nnn[nH]2)cn1",
    "assay system": "AGTR1 (Homo sapiens, UniProt P30556)",
    "value measured": 6.95
  },
  {
    "compound": "CCc1nc2c(C)cc(C)nc2n1Cc1ccc(-c2cc(-c3cccc(C(F)(F)F)n3)ccc2-c2nn[nH]n2)cc1",
    "assay system": "AGTR1 (Homo sapiens, UniProt P30556)",
    "value measured": 6.82
  },
  {
    "compound": "CCCC1=NC2(CCCC2)C(=O)N1Cc1ccc(-c2cc(-c3ccccc3)ccc2-c2nn[nH]n2)cc1",
    "assay system": "AGTR1 (Homo sapiens, UniProt P30556)",
    "value measured": 6.91
  }
]

###

assay system: AGTR1 (Homo sapiens, UniProt P30556)
Construct: host or cells: Pathunter CHO-K1 AGTR1 β-arrestin cell line (CHO-K1)
Sequence (P30556 1-359): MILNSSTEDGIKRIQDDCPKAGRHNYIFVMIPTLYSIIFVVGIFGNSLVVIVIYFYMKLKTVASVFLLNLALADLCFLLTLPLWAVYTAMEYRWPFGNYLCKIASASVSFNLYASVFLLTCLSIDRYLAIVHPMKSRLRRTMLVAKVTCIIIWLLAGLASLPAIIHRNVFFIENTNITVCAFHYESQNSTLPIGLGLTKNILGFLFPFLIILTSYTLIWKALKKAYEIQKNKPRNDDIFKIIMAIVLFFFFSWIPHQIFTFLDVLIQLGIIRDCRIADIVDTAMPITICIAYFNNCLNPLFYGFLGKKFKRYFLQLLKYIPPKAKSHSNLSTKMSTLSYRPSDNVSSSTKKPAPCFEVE
procedure details: DiscoveRx β-arrestin2 recruitment assay (enzyme complementation, Pathunter CHO-K1 AGTR1 β-arrestin cell line)
Assay type: cell-based
assay context: DiscoveRx β-arrestin2 recruitment
Method: In one aspect of the invention, signaling bias of compounds was assessed by comparing the relative activity of compounds to activate both the β-arrestin and Gq signaling pathways. In order to confirm signaling bias, compounds were studied in two different assay formats. DiscoveRx β-arrestin2 Recruitment and IP1 Assays β-arrestin2 recruitment to activated receptors can be assessed using an enzyme complementation method (Zhao, Jones et al. 2008). […]
The entries below are paired with their reported DiscoveRx β-arrestin2 Ymax (%).

[
  {
    "line notation": "CCCCC(=O)N(Cc1ccc(-c2cc(-c3ccc4ncccc4c3)ccc2-c2nn[nH]n2)cc1)[C@H](C(=O)O)C(C)C",
    "DiscoveRx β-arrestin2 Ymax (%)": "39.3%"
  },
  {
    "line notation": "CCCCC(=O)N(Cc1ccc(-c2cc(-c3ccc(NC(C)=O)cc3)ccc2-c2nn[nH]n2)cc1)[C@H](C(=O)O)C(C)C",
    "DiscoveRx β-arrestin2 Ymax (%)": "13.6%"
  },
  {
    "line notation": "CCCCC(=O)N(Cc1ccc(-c2cc(-c3cc(F)cc(F)c3)ccc2-c2nn[nH]n2)cc1)[C@H](C(=O)O)C(C)C",
    "DiscoveRx β-arrestin2 Ymax (%)": "41.7%"
  },
  {
    "line notation": "CCCCC1=NC2(CCCC2)C(=O)N1Cc1ccc(-c2cc(-c3ccccc3)ccc2-c2nn[nH]n2)nc1",
    "DiscoveRx β-arrestin2 Ymax (%)": "11.4%"
  },
  {
    "line notation": "CCCCC(=O)N(Cc1ccc(-c2cc(-c3ccccc3)ccc2-c2nn[nH]n2)nc1)[C@H](C(=O)O)C(C)C",
    "DiscoveRx β-arrestin2 Ymax (%)": "55.2%"
  }
]

###

assay system: AGTR1 (Homo sapiens)
Construct: host or cells: Pathunter CHO-K1 AGTR1 β-arrestin cell line (CHO-K1)
Sequence (P30556 1-359): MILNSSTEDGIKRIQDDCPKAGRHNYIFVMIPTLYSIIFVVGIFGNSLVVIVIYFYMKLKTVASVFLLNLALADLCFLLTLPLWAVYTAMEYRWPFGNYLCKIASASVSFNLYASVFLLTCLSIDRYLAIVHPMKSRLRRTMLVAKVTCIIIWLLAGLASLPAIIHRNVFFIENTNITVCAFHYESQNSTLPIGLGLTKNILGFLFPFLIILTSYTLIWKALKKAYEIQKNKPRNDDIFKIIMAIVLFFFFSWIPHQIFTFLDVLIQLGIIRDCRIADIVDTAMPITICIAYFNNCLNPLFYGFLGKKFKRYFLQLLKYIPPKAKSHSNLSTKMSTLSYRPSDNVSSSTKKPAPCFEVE
procedure details: DiscoveRx β-arrestin2 recruitment assay (enzyme complementation, Pathunter CHO-K1 AGTR1 β-arrestin cell line)
Assay type: cell-based
assay context: DiscoveRx β-arrestin2 recruitment
pEC50: −log10 of the molar value.
Listed next: entries and their corresponding pEC50.
attribute measured: pEC50

[
  {
    "line notation": "COc1ccnc(-c2ccc(-c3nn[nH]n3)c(-c3ccc(CN4C(=O)C5(CCCC5)N=C4C4CC4)cc3)c2)c1",
    "value measured": 7.32
  },
  {
    "line notation": "CCCCc1nc(Cl)c(C(=O)O)n1Cc1ccc(-c2cc(-c3cncc(OC)c3)ccc2-c2nn[nH]n2)cc1",
    "value measured": 7.50
  },
  {
    "line notation": "CCc1nc2c(C)cc(C)nc2n1Cc1cnc(-c2cc(-c3cccc(C)c3)ccc2C(=O)O)cn1",
    "value measured": 6.56
  },
  {
    "line notation": "CCCCc1nc(Cl)c(C(=O)O)n1Cc1ccc(-c2cc(-c3cccc(C(F)F)n3)ccc2-c2nn[nH]n2)cc1",
    "value measured": 7.64
  }
]

###

assay system: AGTR1 (Homo sapiens)
Construct: host or cells: Pathunter CHO-K1 AGTR1 β-arrestin cell line (CHO-K1)
Sequence (P30556 1-359): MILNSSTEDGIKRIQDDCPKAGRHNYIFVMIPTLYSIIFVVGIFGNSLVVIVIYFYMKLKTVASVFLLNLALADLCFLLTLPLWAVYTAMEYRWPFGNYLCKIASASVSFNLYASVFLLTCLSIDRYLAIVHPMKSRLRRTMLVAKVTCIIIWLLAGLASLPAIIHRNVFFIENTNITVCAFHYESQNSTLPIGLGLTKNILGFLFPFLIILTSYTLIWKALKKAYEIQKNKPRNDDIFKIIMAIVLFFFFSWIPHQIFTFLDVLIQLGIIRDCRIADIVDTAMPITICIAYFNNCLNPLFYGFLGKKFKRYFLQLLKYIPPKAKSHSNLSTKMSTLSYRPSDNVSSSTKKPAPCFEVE
procedure details: DiscoveRx IP1 accumulation assay (HTRF), agonist mode, Pathunter CHO-K1 AGTR1 β-arrestin cell line
Format: cell-based
assay context: read-out: IP-1 EC50
Reported EC50 values for a set of compounds

[
  {
    "compound": "CCc1nc2c(C)cc(C)nc2n1Cc1ccc(-c2cc(-c3cccc(OC)n3)ccc2-c2nn[nH]n2)cc1 [Example 29]",
    "comparison symbol": "=",
    "EC50 (nM)": 38.7
  },
  {
    "compound": "CCCCC1=NC2(CCCC2)C(=O)N1Cc1ccc(-c2cc(-c3cncc(C)c3)ccc2-c2nn[nH]n2)cc1 [Example 129]",
    "comparison symbol": "=",
    "EC50 (nM)": 119
  },
  {
    "compound": "CCc1nc2c(C)cc(C)nc2n1Cc1ccc(-c2cc(-c3cc(C)cc(C)c3)ccc2-c2nn[nH]n2)cc1 [Example 9]",
    "comparison symbol": "=",
    "EC50 (nM)": 8.7
  },
  {
    "compound": "CCc1nc2c(C)cc(C)nc2n1Cc1ccc(-c2cc(Oc3cccnc3F)ccc2-c2nn[nH]n2)cc1 [Example 262]",
    "comparison symbol": "=",
    "EC50 (nM)": 37.9
  },
  {
    "compound": "CCCCOC(=O)NS(=O)(=O)c1sc(-c2ccccc2C)cc1-c1ccc(Cn2c(CC)nc3c(C)cc(C)nc32)cn1 [Example 39]",
    "comparison symbol": "=",
    "EC50 (nM)": 126
  },
  {
    "compound": "CCCCC1=NC2(CCOC2)C(=O)N1Cc1ccc(-c2cc(-c3cccc(C)c3)ccc2-c2nnn[nH]2)cc1 (single isomer, unassigned) [Example 152]",
    "comparison symbol": "=",
    "EC50 (nM)": 30.7
  },
  {
    "compound": "CCc1nc2c(C)cc(C)nc2n1Cc1ccc(-c2cc(-c3ccc(CO)cc3)ccc2-c2nnn[nH]2)cn1 [Example 180]",
    "comparison symbol": "=",
    "EC50 (nM)": 226
  },
  {
    "compound": "CCCCC1=NC2(CCCC2)C(=O)N1Cc1ccc(-c2cc(N3CCC[C@@H](C)C3)ccc2-c2nn[nH]n2)cc1 [Example 106]",
    "comparison symbol": ">",
    "EC50 (nM)": 100000
  },
  {
    "compound": "CCc1nc2c(C)cc(C)nc2n1Cc1ccc(-c2cc(-c3cn(CC)nn3)ccc2-c2nnn[nH]2)cc1 [Example 234]",
    "comparison symbol": "=",
    "EC50 (nM)": 19.3
  },
  {
    "compound": "CCc1nc2c(C)cc(C)nc2n1Cc1ccc(-c2cc(-c3ccccc3O)ccc2C(=O)O)cc1 [Example 184]",
    "comparison symbol": "=",
    "EC50 (nM)": 110
  },
  {
    "compound": "CCc1nc2c(C)cc(C)nc2n1Cc1ccc(-c2cc(-c3ccccc3)ccc2C(=O)NS(C)(=O)=O)cc1 [Example 244]",
    "comparison symbol": "=",
    "EC50 (nM)": 201
  },
  {
    "compound": "CCCC1=NC2(CCOC2)C(=O)N1Cc1ccc(-c2cc(-c3cccc(C)c3)ccc2-c2nnn[nH]2)cc1 (single isomer, unassigned) [Example 163]",
    "comparison symbol": "=",
    "EC50 (nM)": 181
  },
  {
    "compound": "CCc1nc2c(C)cc(C)nc2n1Cc1ccc(-c2cc(-c3ccccc3OC(F)(F)F)ccc2-c2nn[nH]n2)cc1 [Example 1]",
    "comparison symbol": "=",
    "EC50 (nM)": 20.7
  },
  {
    "compound": "CCCCC1=NC2(CCCC2)C(=O)N1Cc1ccc(-c2cc(N3CCC(C)C3)ccc2-c2nn[nH]n2)cc1 (stereo not shown) [Example 103]",
    "comparison symbol": ">",
    "EC50 (nM)": 100000
  },
  {
    "compound": "CCc1nc2c(C)cc(C)nc2n1Cc1ccc(-c2cc(-c3cccc(C)c3)ccc2C(=O)O)nn1 [Example 200]",
    "comparison symbol": "=",
    "EC50 (nM)": 2720
  },
  {
    "compound": "CCc1nc2c(C)cc(C)nc2n1Cc1ccc(-c2cc(N3CC(C)(C)c4ccccc43)ccc2-c2nn[nH]n2)cc1 [Example 84]",
    "comparison symbol": "=",
    "EC50 (nM)": 126
  },
  {
    "compound": "CCc1nc2c(C)cc(C)nc2n1Cc1ccc(-c2cc(-n3cc(C4=CCCC4)nn3)ccc2-c2nnn[nH]2)cc1 [Example 229]",
    "comparison symbol": "=",
    "EC50 (nM)": 195
  },
  {
    "compound": "CCc1nc2c(C)cc(C)nc2n1Cc1cnc(-c2cc(-c3ccccc3)ccc2-c2nnn[nH]2)cn1 [Example 187]",
    "comparison symbol": "=",
    "EC50 (nM)": 104
  },
  {
    "compound": "CCc1nc2c(C)cc(C)nc2n1Cc1ccc(-c2cc(-c3ccccc3O)ccc2-c2nnn[nH]2)cn1 [Example 178]",
    "comparison symbol": "=",
    "EC50 (nM)": 21.5
  },
  {
    "compound": "CCc1nc2c(C)cc(C)nc2n1Cc1ncc(-c2cc(-c3ccccc3O)ccc2-c2nnn[nH]2)cn1 [Example 189]",
    "comparison symbol": "=",
    "EC50 (nM)": 18.4
  },
  {
    "compound": "CCCCC1=NC2(CCCC2)C(=O)N1Cc1ccc(-c2cc(N3CCC[C@H](C)C3)ccc2-c2nn[nH]n2)cc1 [Example 104]",
    "comparison symbol": ">",
    "EC50 (nM)": 100000
  },
  {
    "compound": "CCCCC1=NC2(CCCC2)C(=O)N1Cc1ccc(-c2cc(-c3ccc(C)cc3)ccc2-c2nn[nH]n2)cc1 [Example 122]",
    "comparison symbol": "=",
    "EC50 (nM)": 35.4
  }
]
